Target or system UniProtKB P04629: recorded IC50 listed per item.
Sequence (P04629 33-796): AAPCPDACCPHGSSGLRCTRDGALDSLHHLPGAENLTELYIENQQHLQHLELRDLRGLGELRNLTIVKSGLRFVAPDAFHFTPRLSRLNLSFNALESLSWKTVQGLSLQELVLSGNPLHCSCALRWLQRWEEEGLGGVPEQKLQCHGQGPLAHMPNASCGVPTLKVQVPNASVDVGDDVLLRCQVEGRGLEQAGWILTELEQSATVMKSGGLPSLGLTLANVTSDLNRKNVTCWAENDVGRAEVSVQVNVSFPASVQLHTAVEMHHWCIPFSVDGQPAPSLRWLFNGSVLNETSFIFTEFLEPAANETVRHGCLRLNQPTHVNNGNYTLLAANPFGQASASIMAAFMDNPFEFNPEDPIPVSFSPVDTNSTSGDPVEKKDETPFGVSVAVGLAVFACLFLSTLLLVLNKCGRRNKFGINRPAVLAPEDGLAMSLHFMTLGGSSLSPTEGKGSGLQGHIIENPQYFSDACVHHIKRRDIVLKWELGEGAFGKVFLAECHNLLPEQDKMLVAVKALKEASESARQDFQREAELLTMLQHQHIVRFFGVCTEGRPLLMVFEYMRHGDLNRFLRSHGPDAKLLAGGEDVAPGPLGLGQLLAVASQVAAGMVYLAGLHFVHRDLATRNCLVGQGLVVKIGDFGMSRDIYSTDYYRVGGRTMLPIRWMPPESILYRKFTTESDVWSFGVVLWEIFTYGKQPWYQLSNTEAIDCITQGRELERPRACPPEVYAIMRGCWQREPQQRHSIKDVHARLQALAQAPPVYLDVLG
reported property: IC50 (nM)

Example results:
compound	IC50, nM
CC(O)Cn1ncc2cc(NC(=O)c3coc4c3C(=O)NCC4)ccc21 (centres unmarked) [Example 50]	90.7
COc1cc(N2CCN(C(=O)OC(C)(C)C)CC2)ccc1NC(=O)c1coc2c1C(=O)CC(C)(CO)C2 (centres unmarked) [Example 165]	13.3
COC(=O)c1n[nH]c2ccc(NC(=O)c3coc4c3C(=O)NCC4)cc12 [Example 48]	506
CC(C)Oc1nc(N2C[C@H]3CCN[C@H]3C2)ccc1NC(=O)c1coc2c1C(=O)NC(C)(C)C2 [Example 129]	10.8

a: CCOc1nc(N2CCN(C(C)=O)CC2)ccc1NC(=O)c1coc2c1C(=O)NC1(CCC1)C2 [Example 111]
b: O=C(Nc1ccc(O)cc1)c1coc2c1C(=O)NCC2 [Example 31]
c: CCOc1nc(N2CCN(C(C)=O)CC2)ccc1NC(=O)c1coc2c1C(=O)N(C[C@@H](C)OC(C)=O)CC2 [Example 94]
d: CN1CCN(c2ccc(NC(=O)c3coc4c3C(=O)N(C)CC4)cc2)CC1 [Example 22]
Order these by IC50, descending, and give the full ranking. Ranked list of labels, please, in the requested order.
b, d, a, c

Provenance of the data: patent US9777020B2
